# CRF2R Emax annotations
# target.entity: T1, CRF2R
# T1 sequence (Q13324 whole entry, species assumed, looked up): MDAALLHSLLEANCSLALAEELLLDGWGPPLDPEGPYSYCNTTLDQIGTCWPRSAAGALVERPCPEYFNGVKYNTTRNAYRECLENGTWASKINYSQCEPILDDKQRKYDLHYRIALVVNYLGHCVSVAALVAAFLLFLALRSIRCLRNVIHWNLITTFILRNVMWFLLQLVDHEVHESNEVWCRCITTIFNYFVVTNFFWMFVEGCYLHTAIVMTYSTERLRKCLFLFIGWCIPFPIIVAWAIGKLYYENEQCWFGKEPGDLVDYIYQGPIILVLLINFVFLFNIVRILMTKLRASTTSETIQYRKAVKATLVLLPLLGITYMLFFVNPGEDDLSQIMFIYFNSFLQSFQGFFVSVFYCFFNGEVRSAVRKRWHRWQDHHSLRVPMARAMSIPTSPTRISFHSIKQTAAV
# method.description: cell-based or functional assay
Ends that are not written are not given here.

binder	units.text	CRF2R Emax
ZGPPISIDLPLYLLRKMIEIEKQEKEKQQAANNRLLLDT (C-terminal amide) [SEQ ID NO 81]	%	73
ZGIVLSLDVPIGLLRKMIEIEKQEKEKQQAANNRLLLDTI (C-terminal amide) [SEQ ID NO 153]	%	97
ZGPPISIDLPIHLLRKMIEIEKQEKEKQQAANNRLLLDTI (C-terminal amide) [SEQ ID NO 77]	%	100
SQEPPISLDLPLELLREVLEMTKADQLAQQAHSNRKLLDIA-NH2 [SEQ ID NO 89]	%	12.7
DNPSLSIDLPFHLLRTLLELARTQSQRERAEQNAIIFASV-NH2 [SEQ ID NO 185]	%	100
IVLSLDVPIGLLQILLEQERARAAREQATTNARILARV-NH2 [SEQ ID NO 119]	%	95
IVLSLEVPIGLLQILLEQARARAAREQATTNARILARV-NH2 [SEQ ID NO 120]	%	100
DNPSLSIDLPFQLLRTLLELARTQSQRERAEQNAIIFASV-NH2 [SEQ ID NO 182]	%	91.4
ZGPPISIDLPIQLLRKMIEIEKQEKEKQQAANNRLLLDTI (C-terminal amide) [SEQ ID NO 78]	%	78
ZGPPISIDLPLELLRKMIEIEKQEKEKQQATTNARILARV (C-terminal amide) [SEQ ID NO 143]	%	85.5
IVLSLDVPIGLLQILLEQARARAAREQATSNRKLMEII-NH2 [SEQ ID NO 163]	%	96
ZGPPISIDLPLQLLRKMIEIEKQEKEKQQATTNARILARV (C-terminal amide) [SEQ ID NO 144]	%	85.5
ZGPPISIDLPLHLLRKMIEIEKQEKEKQQAANNRLLLDTI (C-terminal amide) [SEQ ID NO 83]	%	81
ZGPPISIDLPFQLLRKMIEIEKQEKEKQQATTNRLLLDTI (C-terminal amide) [SEQ ID NO 13]	%	79
